# Tested on: SW-480 colon adenocarcinoma cells
# ASSAY SUMMARY: Apoptosis fold induction protocol (DNA fragmentation ELISA)
# EXPERIMENTAL CONDITIONS: Homo sapiens, SW480, read-out: DNA fragmentation EC50
pEC50: −log10 of the molar value. Structures can show the parent of a compound that is named as a salt.

{"columns": ["COMPOUND", "pEC50"],
 "data": [
  ["CC1=C(CC(=O)NCc2ccccc2)c2cc(F)ccc2/C1=C\\c1ccncc1 [Compound I, hydrochloride]", 4.82]
]}

* * *

# ASSAY SYSTEM: classic PDE2 (Peak B) from SW480 (Homo sapiens)
# Construct: endogenous in cells; host or cells: SW480 cells, non-FPLC DEAE column with 30% ethylene glycol buffers
# ASSAY SUMMARY: Inhibition of classic PDE2 Peak B isolated with ethylene glycol buffers
# Assay type: biochemical
# EXPERIMENTAL CONDITIONS: read-out: IC50, cAMP PDE activity in Peak B with rolipram; 2.0 μM cAMP substrate, addition of 10 μM rolipram

{"columns": ["COMPOUND", "U", "IC50"],
 "data": [
  ["CCCCCC[C@@H]([C@@H](C)O)n1cnc2c(N)ncnc21 (racemic)", "µM", 2.5]
]}

* * *

# ASSAY SYSTEM: PDE peak A (PDE5) from SW480 cells (Homo sapiens)
# Construct: endogenous in cells; host or cells: SW480 colon cancer cells, DEAE-Trisacryl M fraction
# ASSAY SUMMARY: cGMP hydrolysis inhibition, PDE peak A from SW480
# Format: biochemical
# EXPERIMENTAL CONDITIONS: cGMP hydrolysis, 0.25 μM 3H-cGMP
READOUT KIND: IC50

{"columns": ["COMPOUND", "RESULT"],
 "data": [
  ["CCCCCC[C@@H]([C@@H](C)O)n1cnc2c(N)ncnc21 (racemic) [EHNA]", "> 100 µM"]
]}

* * *

# System: HT-29 human colon carcinoma cell line
# ASSAY SUMMARY: Growth inhibition, SRB assay, HT-29
# Type: cell-based
# EXPERIMENTAL CONDITIONS: 100 μM
READOUT KIND: Growth-inhibitory activity, % Inhibition at 100 μM (%)

{"columns": ["COMPOUND", "COMPARATOR", "NUMERIC READOUT"],
 "data": [
  ["CC(=O)NC(CSC12CC(=O)OC1(C)/C(=C/c1ccc(S(C)(=O)=O)cc1)c1ccc(F)cc12)C(=O)O (racemic)", "=", 78],
  ["O=C(O)C1CCN(c2nc(NCc3ccc4c(c3)OCO4)c3cc(Cl)ccc3n2)CC1", "<", 50],
  ["CC1=C(CC(=O)O)c2cc(F)ccc2/C1=C\\c1ccc(Cl)cc1", "=", 80],
  ["CCN(CC)CCSC12CC(=O)OC1(C)/C(=C/c1ccc(S(C)(=O)=O)cc1)c1ccc(F)cc12 (racemic)", "=", 68]
]}

* * *

# ASSAY SYSTEM: purified cyclooxygenase (Type 1, COX-I) from ram seminal vesicles (Ovis aries)
# Construct: using purified cyclooxygenase from ram seminal vesicles as described previously; tissue Cayman Chemical, Ann Arbor, Mich; (named in the general protocol only); host or cells: ram seminal vesicles
# ASSAY SUMMARY: COX inhibition assay, purified cyclooxygenase
# Format: biochemical
# EXPERIMENTAL CONDITIONS: qualitative activity profile

{"columns": ["COMPOUND", "ASSAY SYSTEM", "COX Inhibition"],
 "data": [
  ["CC(=O)NC(CSC12CC(=O)OC1(C)/C(=C/c1ccc(S(C)(=O)=O)cc1)c1ccc(F)cc12)C(=O)O (racemic)", "purified cyclooxygenase (Type 1, COX-I) from ram seminal vesicles (Ovis aries)", "−"],
  ["Clc1cccc(Nc2nnc(-c3ccccc3)c3ccccc23)c1", "purified cyclooxygenase (Type 1, COX-I) from ram seminal vesicles (Ovis aries)", "++++"],
  ["COc1cc(/C=C2/C(C)=C(CC(=O)NCc3ccccc3)c3cc(F)ccc32)cc(OC)c1OC", "purified cyclooxygenase (Type 1, COX-I) from ram seminal vesicles (Ovis aries)", "−"],
  ["CC1=C(CC(=O)N(C2CCCCC2)C2CCCCC2)c2cc(F)ccc2/C1=C\\c1ccc(S(C)(=O)=O)cc1", "purified cyclooxygenase (Type 1, COX-I) from ram seminal vesicles (Ovis aries)", "−"]
]}

* * *

# System: HT-29 cells
# ASSAY SUMMARY: Apoptosis and necrosis by morphology (acridine orange and ethidium bromide)
# Format: cell-based, human
# EXPERIMENTAL CONDITIONS: HT-29 treated for 6 days
The following compounds are shown together with reported % Apoptosis values.

{"columns": ["COMPOUND", "U", "% Apoptosis"],
 "data": [
  ["Clc1cccc(Nc2nnc(-c3ccccc3)c3ccccc23)c1", "%", 80],
  ["CCCCOc1cc(CC2CNC(=O)N2)ccc1OC (stereo not shown)", "%", 11],
  ["COc1nc2c([nH]1)c(=O)n(C)c(=O)n2CC(C)C", "%", 2],
  ["CC(C)Cn1c(=O)n(C)c(=O)c2[nH]cnc21", "%", 4]
]}

* * *

# Tested on: SW-480 cell line
# ASSAY SUMMARY: Growth inhibition in SW-480
# Assay type: cell-based
# EXPERIMENTAL CONDITIONS: Homo sapiens, SW480
pIC50: −log10 of the molar value. Where a name gives a salt, the structure may show the parent alone.

{"columns": ["COMPOUND", "pIC50"],
 "data": [
  ["CC1=C(CC(=O)NCc2ccccc2)c2cc(F)ccc2/C1=C\\c1ccncc1 [Compound I, hydrochloride]", 6.15]
]}

* * *

# ASSAY SYSTEM: classic PDE2 (Peak B) from SW480 (Homo sapiens)
# Construct: endogenous in cells; host or cells: SW480 cells, non-FPLC DEAE column with 30% ethylene glycol buffers
# ASSAY SUMMARY: Inhibition of classic PDE2 Peak B isolated with ethylene glycol buffers
# Format: biochemical
# EXPERIMENTAL CONDITIONS: read-out: IC50, cGMP PDE activity in Peak B; 2 μM cGMP substrate
pIC50: −log10 of the molar value.
READOUT KIND: pIC50

{"columns": ["COMPOUND", "NUMERIC READOUT"],
 "data": [
  ["CCCCCC[C@@H]([C@@H](C)O)n1cnc2c(N)ncnc21 (racemic)", 5.80]
]}

* * *

# ASSAY SYSTEM: classic PDE2 (Peak B) from SW480 (Homo sapiens, UniProt O00408)
# Construct: endogenous in cells; host or cells: SW480 cells, non-FPLC DEAE column with 30% ethylene glycol buffers
# Sequence (O00408 whole entry): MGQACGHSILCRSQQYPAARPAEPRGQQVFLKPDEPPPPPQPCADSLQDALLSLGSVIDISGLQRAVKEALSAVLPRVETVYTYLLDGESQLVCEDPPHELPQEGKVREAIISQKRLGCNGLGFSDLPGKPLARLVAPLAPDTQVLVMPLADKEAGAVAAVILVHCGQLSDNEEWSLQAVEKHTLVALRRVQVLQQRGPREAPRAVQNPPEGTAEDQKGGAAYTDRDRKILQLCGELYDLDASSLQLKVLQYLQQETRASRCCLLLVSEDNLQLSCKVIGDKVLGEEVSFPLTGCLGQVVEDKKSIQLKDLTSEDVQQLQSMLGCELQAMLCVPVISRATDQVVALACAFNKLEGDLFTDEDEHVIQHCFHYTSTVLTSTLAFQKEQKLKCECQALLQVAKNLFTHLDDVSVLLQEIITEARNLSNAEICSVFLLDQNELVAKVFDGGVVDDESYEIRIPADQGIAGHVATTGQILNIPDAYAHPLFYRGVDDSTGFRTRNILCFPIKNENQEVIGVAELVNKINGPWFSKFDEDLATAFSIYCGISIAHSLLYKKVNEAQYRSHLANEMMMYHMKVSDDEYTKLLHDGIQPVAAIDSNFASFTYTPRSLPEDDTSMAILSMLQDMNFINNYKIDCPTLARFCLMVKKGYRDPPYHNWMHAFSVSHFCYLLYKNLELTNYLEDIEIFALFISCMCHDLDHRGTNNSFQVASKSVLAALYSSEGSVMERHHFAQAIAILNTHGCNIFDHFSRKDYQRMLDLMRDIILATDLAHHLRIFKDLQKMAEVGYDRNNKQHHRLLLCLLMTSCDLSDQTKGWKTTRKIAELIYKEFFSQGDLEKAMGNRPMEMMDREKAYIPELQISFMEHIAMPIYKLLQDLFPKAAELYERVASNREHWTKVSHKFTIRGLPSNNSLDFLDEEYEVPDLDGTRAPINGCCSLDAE
# ASSAY SUMMARY: Inhibition of classic PDE2 Peak B isolated with ethylene glycol buffers
# Type: biochemical
# EXPERIMENTAL CONDITIONS: 2.0 μM cAMP substrate; read-out: IC50, cAMP PDE activity in Peak B
pIC50: −log10 of the molar value.
READOUT KIND: pIC50

{"columns": ["COMPOUND", "ASSAY SYSTEM", "READOUT KIND", "NUMERIC READOUT"],
 "data": [
  ["CCCCCC[C@@H]([C@@H](C)O)n1cnc2c(N)ncnc21 (racemic)", "classic PDE2 (Peak B) from SW480 (Homo sapiens, UniProt O00408)", "pIC50", 5.42]
]}

* * *

# Tested on: HT-29 human colon carcinoma cell line
# ASSAY SUMMARY: Growth inhibition, SRB assay, HT-29
# Format: cell-based
# EXPERIMENTAL CONDITIONS: Homo sapiens, HT-29, 144 h; six days, SRB assay; read-out: IC50, growth of HT-29 cells
pIC50: −log10 of the molar value.

{"columns": ["STRUCTURE", "pIC50"],
 "data": [
  ["CC1=C(CC(=O)O)c2cc(F)ccc2/C1=C\\c1ccc(S(C)(=O)=O)cc1", "~3.70"]
]}

* * *

# ASSAY SYSTEM: purified cyclooxygenase (Type 1, COX-I) from ram seminal vesicles (Ovis aries, UniProt P05979)
# Construct: using purified cyclooxygenase from ram seminal vesicles as described previously; tissue Cayman Chemical, Ann Arbor, Mich; (named in the general protocol only); host or cells: ram seminal vesicles
# Sequence (P05979 25-600): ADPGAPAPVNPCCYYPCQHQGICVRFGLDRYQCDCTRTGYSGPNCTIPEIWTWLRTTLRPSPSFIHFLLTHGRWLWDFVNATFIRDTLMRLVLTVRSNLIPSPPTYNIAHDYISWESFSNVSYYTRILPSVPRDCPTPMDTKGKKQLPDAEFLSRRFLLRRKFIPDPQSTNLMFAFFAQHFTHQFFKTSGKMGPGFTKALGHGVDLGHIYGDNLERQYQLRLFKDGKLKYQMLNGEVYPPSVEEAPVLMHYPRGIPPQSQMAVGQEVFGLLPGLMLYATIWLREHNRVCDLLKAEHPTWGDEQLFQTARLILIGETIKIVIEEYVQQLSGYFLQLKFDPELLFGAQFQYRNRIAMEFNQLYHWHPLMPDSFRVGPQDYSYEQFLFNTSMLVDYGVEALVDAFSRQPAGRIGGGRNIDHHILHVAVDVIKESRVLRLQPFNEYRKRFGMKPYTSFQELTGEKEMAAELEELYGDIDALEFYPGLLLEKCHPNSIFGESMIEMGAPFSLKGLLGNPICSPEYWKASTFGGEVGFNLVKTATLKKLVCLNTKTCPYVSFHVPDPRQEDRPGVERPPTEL
# ASSAY SUMMARY: COX inhibition assay, purified cyclooxygenase
# Format: biochemical
# EXPERIMENTAL CONDITIONS: qualitative activity profile
READOUT KIND: COX Inhibition

{"columns": ["MOLECULE", "RESULT"],
 "data": [
  ["CCN(CC)CCSC12CC(=O)OC1(C)/C(=C/c1ccc(S(C)(=O)=O)cc1)c1ccc(F)cc12 (racemic)", "−"],
  ["COc1cc(C=C2C(C)=C(CC(=O)O)c3cc(F)ccc32)cc(OC)c1OC", "−"],
  ["CC1=C(CC(=O)O)c2cc(F)ccc2/C1=C\\c1ccc(S(C)(=O)=O)cc1", "−"]
]}
